# TARGET_SYSTEM: MLLT3 (Homo sapiens, UniProt P42568)
# Sequence (P42568 whole entry): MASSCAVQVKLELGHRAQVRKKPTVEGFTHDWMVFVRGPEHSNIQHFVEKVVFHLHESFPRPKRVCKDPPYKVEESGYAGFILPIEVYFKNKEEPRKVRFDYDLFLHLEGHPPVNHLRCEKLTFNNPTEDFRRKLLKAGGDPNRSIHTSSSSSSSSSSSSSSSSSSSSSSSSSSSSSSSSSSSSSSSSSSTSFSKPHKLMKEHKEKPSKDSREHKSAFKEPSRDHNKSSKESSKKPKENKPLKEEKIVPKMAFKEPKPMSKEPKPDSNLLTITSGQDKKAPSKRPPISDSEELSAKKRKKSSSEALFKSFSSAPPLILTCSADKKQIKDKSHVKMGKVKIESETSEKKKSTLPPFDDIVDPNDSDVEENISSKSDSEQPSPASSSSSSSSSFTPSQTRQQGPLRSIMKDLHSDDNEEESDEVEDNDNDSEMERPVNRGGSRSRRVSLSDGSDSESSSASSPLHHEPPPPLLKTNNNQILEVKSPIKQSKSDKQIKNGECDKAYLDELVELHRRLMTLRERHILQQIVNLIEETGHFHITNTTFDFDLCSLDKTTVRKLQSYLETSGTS
# ASSAY_PROCEDURE: HTRF IC50 determination assay, MLLT3 / H3K9cro peptide displacement
# EXPERIMENTAL_SETUP: MLLT3 assay IC50 (nM), 6His tagged MLLT3, biotinylated H3K9cro peptide, compound 20 μM to 20 nM, 11 data points in duplicate
# IC50 annotations

Past entries and their recorded results:
> print(dat)
                                   molecule  experimental.readout  experimental.result
1  CN1CCCC1c1cn2cc(NC(=O)c3ccc4cc(F)ccc4c3)ccc2n1 (single isomer, unassigned) [Example 5]                  IC50       150 to 1500 nM
2  CN1CCCC1c1cn2cc(NC(=O)c3cc4ccncc4cc3F)ccc2n1 (single isomer, unassigned)                  IC50       150 to 1500 nM
3  Cc1ncc(-c2ccc(C(=O)Nc3ccc4nc(C5CCCN5C)cn4c3)c(F)c2)s1 (single isomer, unassigned)                  IC50       150 to 1500 nM
4  Cc1nc(NC(=O)c2cc3cnn(C)c3cc2F)cn2cc([C@H]3CCCN3C)nc12                  IC50       150 to 1500 nM
5  Cc1ncsc1-c1ccc(C(=O)Nc2ccc3nc(C4CCCN4C)cn3c2)c(F)c1 (single isomer, unassigned)                  IC50     1500 to 20000 nM
6  CN1CCCC1c1cn2cc(NC(=O)c3cn4ccncc4n3)ccc2n1 (racemic)                  IC50     1500 to 20000 nM

Consider the molecule CCC1CC(c2cn3cc(NC(=O)c4ccc5c(C)nn(C)c5c4)ncc3n2)N(C)C1 (single isomer, unassigned) [Example 78] and give its measured IC50. 150 to 1500 nM

Consider the molecule CN1CCCC1c1cn2cc(NC(=O)c3cnc(-c4ccccc4)o3)ccc2n1 (racemic) and give its measured IC50. 1500 to 20000 nM

Consider the molecule CCc1nn(C)c2ccc(C(=O)Nc3ccc4nc(C5CCCN5C)cn4c3)cc12 (racemic) and give its measured IC50. 150 to 1500 nM

Consider the molecule CN1CCCC1(C)c1cn2cc(NC(=O)c3ccc4c(cnn4C)c3)ccc2n1 (racemic) and give its measured IC50. 1500 to 20000 nM

Consider the molecule CCN1CCCC1c1cn2cc(NC(=O)c3ccc4c(C)nn(C)c4c3)ncc2n1 (single isomer, unassigned) [Example 88] and give its measured IC50. 1500 to 20000 nM

Consider the molecule CN1CCCC1c1cn2cc(NC(=O)c3ccc4c(cnn4C)c3)ccc2n1 (single isomer, unassigned) [Example 60] and give its measured IC50. 150 to 1500 nM

Consider the molecule CN1CCCCC1c1cn2cc(NC(=O)c3ccc4c(cnn4C)c3)ccc2n1 (single isomer, unassigned) [Example 28] and give its measured IC50. 150 to 1500 nM

Consider the molecule CN1C2CCCCC2C[C@@H]1c1cn2cc(NC(=O)c3ccc4c(cnn4C)c3)ccc2n1 (stereo partly drawn) and give its measured IC50. 150 to 1500 nM

Consider the molecule Cc1nn(C)c2cc(C(=O)Nc3cn4cc(C5CC(C)(C)CN5C)nc4cn3)ccc12 (single isomer, unassigned) [Example 82] and give its measured IC50. < 150 nM
